- Tested on: TK-10
- assay summary: NCI tumour cell line growth inhibition, 48 h
Calls of active or inactive are those of the source. Rule as the data show it: active = GI50 up to about 1.1 µM and inactive = higher.
Parameter GI50: see the listing below.

// known answers, use as guide
>>> df
                                   compound  assayed_system       measured_value
0  NC(CC(=O)OCc1ccccc1)C(=O)OCc1ccccc1 (configuration not stated)           TK-10  > 100 µM (inactive)
1                           CC(=O)N(CCN)CCN           TK-10   > 10 µM (inactive)
2                    C#CCOCn1cnc2c(N)ncnc21           TK-10  > 100 µM (inactive)
3  CC(=O)NC(C)(C)C1CC=C(C)/C(=N\O)C1 (configuration not stated)           TK-10  > 100 µM (inactive)
4  O=C1OC(=O)C2=C1C(c1cccs1)C=C(c1cccnc1)N2c1ccncc1 (configuration not stated)           TK-10     17 µM (inactive)
5            Cc1cc2oc(=O)[nH]c(=S)c2c(C)c1C           TK-10  > 100 µM (inactive)
6      C[n+]1cccc(/C=C/c2ccc3cccc(O)c3n2)c1           TK-10  > 100 µM (inactive)
7                 C=C1CN=C(Nc2ccc(Cl)cc2)S1           TK-10  > 100 µM (inactive)

So, Oc1ccc2ccccc2c1-c1nnc(CCCCCCCCc2nnc(-c3c(O)ccc4ccccc34)o2)o1 ? Its GI50 was 9.42 µM (inactive)

So, CCOC(=O)c1ccc(Nc2nc3ccccc3n3cccc23)cc1 ? Its GI50 was 34.8 µM (inactive)

So, CC[C@@H](/C=C\CCC1(C[C@@H](N)CCC=C(C)C)OCCO1)O[Si](C(C)C)(C(C)C)C(C)C ? Its GI50 was 17.1 µM (inactive)

So, COC(=O)C1(Cc2ccccc2)Cc2cc3c(cc2C1=O)CCC3 (configuration not stated) ? Its GI50 was 64 µM (inactive)

* * *

- Tested on: UACC-257
- assay summary: NCI tumour cell line growth inhibition, 48 h
Calls of active or inactive are those of the source. Rule as the data show it: active = GI50 up to about 1.1 µM and inactive = higher.
Valid outcomes are listed here; reply with one: active, inactive

molecule	group label
CN(C)CCCNC(=O)c1cc(NC(=O)c2cc(NC(=O)CCCn3c4ccccc4c4ccccc43)cn2C)cn1C	inactive
Cn1c(=O)c2nc(SCc3ccccn3)[nH]c2n(C)c1=S	inactive
COC(=O)C(C(=O)C(=O)Nc1ccc(OC)cc1[N+](=O)[O-])c1nc2cc(C)c(C)cc2nc1O (stereo unspecified)	inactive
CSc1ccc(Nc2cc(=O)[nH]c(=O)[nH]2)cc1	inactive

Q) Short answer needed: outcome of this test for O=C(/C=C/c1ccc(O)cc1)c1ccc(O)cc1 [4,4'-DIHYDROXYCHALCONE] ?
A) inactive

Q) Short answer needed: outcome of this test for CCOC(=O)C(NC(=O)Nc1ccccc1F)(OC)C(F)(F)F (stereo unspecified) ?
A) inactive

Q) Short answer needed: outcome of this test for CC[C@@]1(O)C[C@H](OC2CC(N(C)C)C(OC3CC(O)C(OC4CC(O)C(O)C(C)O4)C(C)O3)C(C)O2)c2c(cc3c(c2O)C(=O)c2c(O)ccc(O)c2C3=O)[C@H]1C(=O)OC (stereo partly specified) ?
A) active

Q) Short answer needed: outcome of this test for CO/S(=N/S(=O)(=O)c1ccccc1)c1ccccc1[N+](=O)[O-] (stereo unspecified) ?
A) inactive

Q) Short answer needed: outcome of this test for CCCCCCCCCCCCCCCCCC(=O)O[C@H](COC(=O)CCCCCCCCCCC)COC(=O)CCCCCCCCCCCCCCC ?
A) inactive

Q) Short answer needed: outcome of this test for NS(=O)(=O)c1ccc(/N=N/c2c(O)c(C(=O)O)cc3ccccc23)cc1 ?
A) inactive

Q) Short answer needed: outcome of this test for CN(/N=C(\C(=O)O)c1ccccc1)C1=NCCCCN1 ?
A) inactive

Q) Short answer needed: outcome of this test for CCC(C)n1c(C)nc2c1C(=O)c1ccccc1C2=O (stereo unspecified) ?
A) inactive

Q) Short answer needed: outcome of this test for CCN(CC)c1ccc2c(c1)OC(=O)C(c1nnc(-c3ccc([N+](=O)[O-])cc3)o1)C2 (stereo unspecified) ?
A) inactive

Q) Short answer needed: outcome of this test for C=C(C)C1Cc2c(cc(OC)c3c(=O)c4ccccc4n(C)c23)O1 (stereo unspecified) ?
A) inactive

Q) Short answer needed: outcome of this test for COc1cccc(C2SCc3nc4ccccc4n32)c1 (stereo unspecified) ?
A) inactive

Q) Short answer needed: outcome of this test for COc1ccc2c(c1)/C(=C\c1c(-c3ccccc3)nc3n1CCS3)C(=O)N2 ?
A) inactive

Q) Short answer needed: outcome of this test for CN(CC(=O)O)c1ccc(/C=C/c2ccnc3ccccc23)cc1 ?
A) inactive

Q) Short answer needed: outcome of this test for O=C1CCCCC1S(=O)(=O)c1ccccc1 (stereo unspecified) ?
A) inactive

Q) Short answer needed: outcome of this test for O=NN(Cc1ccc(Cl)cc1)C(C(=O)O)c1ccccc1 (stereo unspecified) ?
A) inactive

Q) Short answer needed: outcome of this test for C/C(=N\Nc1nc2ccccc2o1)c1ncccn1 ?
A) active

Q) Short answer needed: outcome of this test for O=C(c1ccc(Cl)cc1)c1ccc(OCCCOc2ccc(C(=O)c3ccc(Cl)cc3)cc2Cl)c(Cl)c1 ?
A) inactive
